Just for reference, ChEMBL document CHEMBL2010768 is where these values come from.

Assay Name: Clearance in human liver microsomes by LC-MS/MS analysis
Type: ADME, Microsome
Parameter Measured: CLhep predicted (mL/min/kg)

Smiles Data	CLhep predicted [mL/min/kg]
COc1cccc2c1nc(C)n2-c1ccc(C(=O)NC2CC2)s1	4
Cc1ccc2nc(C)n(-c3ccc(C(=O)NC4CC4)s3)c2c1	10
Cc1nc2cc(OC(F)(F)F)ccc2n1-c1ccc(C(=O)NC2CC2)s1	7

[a] O=C(NC1CC1)c1ccc(-n2cnc3c(Cl)cc(F)cc32)s1
[b] Cc1nc2c(OC(F)F)cccc2n1-c1ccc(C(=O)NC2CC2)s1
INPUT: Which is greater in CLhep predicted, the first item a or the second item b ? Choose, then provide that item's label.
OUTPUT: a

---

Assay Name: AUC (0 to infinity) in rat at 1 mg/kg, iv by LC-MS/MS analysis
Type: ADME, organism-based
Parameters: time infinity, dose 1 mg/kg, route intravenous
Run Conditions: plasma
Parameter Measured: AUC(0-inf) (ng·h/mL)
Answer format: numeric, ng·h/mL implied, no suffix.

INPUT: Which AUC(0-inf) value is on record for `Cc1nc2c(C#N)cccc2n1-c1ccc(C(=O)NC2CC2)s1` ?
OUTPUT: 703

---

Assay Name: Cmax in dog at 3 mg/kg, po by LC-MS/MS analysis
Assay type: ADME, organism-based, Canis lupus familiaris
Design: dose 3 mg/kg, route oral
Run Conditions: in vivo
Parameter Measured: Cmax (ng/mL)
Just the number please, in ng/mL, no unit attached.

INPUT: Could you share which Cmax value was measured for `Cc1nc2c(C#N)cccc2n1-c1ccc(C(=O)NC2CC2)s1` ?
OUTPUT: 1110

---

Assay Name: Plasma protein binding in mouse by LC-MS/MS analysis
Format: ADME, cell-free
Run Conditions: read-out: PPB (converted)
Parameter Measured: fraction unbound
# respond with the number and nothing more

INPUT: Form field: reported fraction unbound of `Cc1nc2c(C#N)cccc2n1-c1ccc(C(=O)NC2CC2)s1`
OUTPUT: 0.182

---

Assay Name: Half life in dog at 1 mg/kg, iv by LC-MS/MS analysis
Type: ADME, organism-based, Canis lupus familiaris
Design: dose 1 mg/kg, route intravenous
Run Conditions: in vivo
Parameter Measured: half-life (min)
// units = min; emit number, no label

INPUT: Any idea what its half-life is? The molecule is `Cc1nc2c(C#N)cccc2n1-c1ccc(C(=O)NC2CC2)s1`
OUTPUT: 31.2

---

System Under Test: Dihydroorotate dehydrogenase (Plasmodium falciparum, UniProt Q54A96)
Sequence (Q54A96 whole entry): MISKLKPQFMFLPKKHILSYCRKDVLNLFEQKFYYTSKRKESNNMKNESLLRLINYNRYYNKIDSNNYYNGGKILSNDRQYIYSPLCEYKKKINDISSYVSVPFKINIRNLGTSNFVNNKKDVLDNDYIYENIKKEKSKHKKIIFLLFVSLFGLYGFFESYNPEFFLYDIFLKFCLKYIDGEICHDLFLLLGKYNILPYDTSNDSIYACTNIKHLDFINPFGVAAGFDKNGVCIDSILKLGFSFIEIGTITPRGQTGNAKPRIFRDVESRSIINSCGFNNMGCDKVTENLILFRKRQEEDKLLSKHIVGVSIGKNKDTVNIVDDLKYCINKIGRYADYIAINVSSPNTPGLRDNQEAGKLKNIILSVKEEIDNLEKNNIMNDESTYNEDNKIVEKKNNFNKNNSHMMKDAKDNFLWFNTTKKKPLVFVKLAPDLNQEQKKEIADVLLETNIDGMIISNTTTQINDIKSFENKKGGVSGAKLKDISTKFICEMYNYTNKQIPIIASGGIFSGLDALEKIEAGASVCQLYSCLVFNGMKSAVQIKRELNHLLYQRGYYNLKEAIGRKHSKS
pIC50: −log10 of the molar value.
Parameter Measured: pIC50

Smiles Data	System Under Test	Recorded Result
CC(C)NC(=O)c1ccc(-n2cnc3ccccc32)s1	Dihydroorotate dehydrogenase (Plasmodium falciparum, UniProt Q54A96)	6.17
CCCNC(=O)c1ccc(-n2cnc3ccccc32)s1	Dihydroorotate dehydrogenase (Plasmodium falciparum, UniProt Q54A96)	6.15

[1] Cc1cc(F)c2c(c1)ncn2-c1ccc(C(=O)NC2CC2)s1
[2] Cc1nc2cc(Cl)ccc2n1-c1ccc(C(=O)NC2CC2)s1
INPUT: Sorting by pIC50 in descending order, would 1 or 2 appear first? Identify your selection by its label.
OUTPUT: 2
(2: 7.31, 1: 7.02)

---

Assay Name: Clearance in rat at 1 mg/kg, iv by LC-MS/MS analysis
Assay type: ADME, organism-based
Design: dose 1 mg/kg, route intravenous
Run Conditions: in vivo
Parameter Measured: clearance (mL/min/kg)
Hi! Could you send only the number? It should be in mL/min/kg, unit omitted.

INPUT: Give the measured clearance of `Cc1nc2c(C#N)cccc2n1-c1ccc(C(=O)NC2CC2)s1` .
OUTPUT: 24

---

Assay Name: Clearance in mouse liver microsomes by LC-MS/MS analysis
Type: ADME, Microsome
Parameter Measured: CLhep predicted (mL/min/kg)

Smiles Data	CLhep predicted, mL/min/kg
Cc1nc2c(F)cccc2n1-c1ccc(C(=O)NC2CC2)s1	37

[1] Cc1nc2c(C#N)cccc2n1-c1ccc(C(=O)NC2CC2)s1
[2] Cc1nc2ccc(C(F)(F)F)cc2n1-c1ccc(C(=O)NC2CC2)s1
[3] Cc1nc2c(Cl)cc(F)cc2n1-c1ccc(C(=O)NC2CC2)s1
INPUT: List these items ordered by CLhep predicted, big to small. Please list each label once, in the requested order.
OUTPUT: 2, 3, 1

---

Assay Name: Plasma protein binding in human by LC-MS/MS analysis
Assay type: ADME, cell-free
Run Conditions: read-out: PPB (converted)
Parameter Measured: fraction unbound
Form field (numeric): enter value without unit.

INPUT: Recorded fraction unbound of `Cc1nc2c(C#N)cccc2n1-c1ccc(C(=O)NC2CC2)s1` , please.
OUTPUT: 0.112

---

Assay Name: Half life in rat at 1 mg/kg, iv by LC-MS/MS analysis
Assay type: ADME, organism-based
Parameters: dose 1 mg/kg, route intravenous
Run Conditions: in vivo
Parameter Measured: half-life (min)
Reply numerically in min, unit not repeated.

INPUT: May I ask what half-life has been recorded for `Cc1nc2c(C#N)cccc2n1-c1ccc(C(=O)NC2CC2)s1` ?
OUTPUT: 51

---

Assay Name: Clearance in human liver microsomes by LC-MS/MS analysis
Assay type: ADME, Microsome
Parameter Measured: CLhep predicted (mL/min/kg)

Smiles Data	Recorded Result
Cc1nc2c(Cl)cc(F)cc2n1-c1ccc(C(=O)NC2CC2)s1	5
Cc1nc2ccc(C(F)(F)F)cc2n1-c1ccc(C(=O)NC2CC2)s1	8
Cc1nc2ccc(OC(F)(F)F)cc2n1-c1ccc(C(=O)NC2CC2)s1	10

[P] Cc1cccc2nc(C)n(-c3ccc(C(=O)NC4CC4)s3)c12
[Q] Cc1cc(F)c2ncn(-c3ccc(C(=O)NC4CC4)s3)c2c1
INPUT: Lab note: record which item had the higher CLhep predicted, P or Q . Field: selected label. Fill in the label of the entry you choose.
OUTPUT: Q
(Q: 10 mL/min/kg, P: 6 mL/min/kg)
